Target: UniProtKB O43613
Sequence (O43613 whole entry): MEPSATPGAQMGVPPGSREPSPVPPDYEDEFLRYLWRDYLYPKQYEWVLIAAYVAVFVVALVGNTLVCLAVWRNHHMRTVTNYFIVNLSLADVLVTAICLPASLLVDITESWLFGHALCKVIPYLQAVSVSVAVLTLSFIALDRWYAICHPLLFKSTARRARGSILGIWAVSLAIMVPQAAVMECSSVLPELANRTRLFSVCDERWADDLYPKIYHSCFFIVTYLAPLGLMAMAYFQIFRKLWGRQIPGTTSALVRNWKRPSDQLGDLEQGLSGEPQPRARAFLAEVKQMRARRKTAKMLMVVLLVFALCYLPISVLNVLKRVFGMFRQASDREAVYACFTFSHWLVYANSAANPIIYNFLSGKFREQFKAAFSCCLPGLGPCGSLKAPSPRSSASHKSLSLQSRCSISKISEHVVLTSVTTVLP
Test: In vitro assay: intracellular calcium measurements (FLIPR), antagonistic activity
Settings: CHO cells expressing human orexin-1 receptor, orexin-A agonist, geometric mean, read-out: IC50 Ox1
Measure: log10(IC50) (log10 of the value in nM)

| Compound | Measure | Observed result |
| --- | --- | --- |
| Cc1nc(C(=O)N2CC[C@H](C)[C@H]2c2nc3cc(C)c(C)cc3[nH]2)c(-c2ccc(Cl)cc2)s1 | log10(IC50) | 0.60 |
| CO[C@@H]1C[C@@H](c2nc3ccc(Cl)c(C)c3[nH]2)N(C(=O)c2nc(C)sc2-c2ccc(C)c(C)c2)C1 | log10(IC50) | -0.05 |
| C=C1C[C@@H](c2nc3cc(Cl)c(C(F)(F)F)cc3[nH]2)N(C(=O)c2nc(C)ccc2-n2cccn2)C1 | log10(IC50) | 1.67 |
| Cc1nc(C(=O)N2CCCC2c2nc3cc(Br)ccc3[nH]2)c(-c2ccccc2)s1 (stereo not drawn) | log10(IC50) | 2.17 |
| Cc1nc(C(=O)N2CC[C@H](C)[C@H]2c2nc3c(C)c(Cl)ccc3[nH]2)c(-c2ccc(Cl)cc2)s1 | log10(IC50) | -0.10 |
| COc1ccc2nc([C@@H]3CCCN3C(=O)c3cnc(C)nc3-c3ccc(Br)c(Cl)c3)[nH]c2c1 | log10(IC50) | 1.88 |
| Cc1ccc(-c2ccccc2C(=O)N2CCC[C@@]2(C)c2nc3cc(C)c(C)cc3[nH]2)cc1 | log10(IC50) | 1.76 |
| C=C1C[C@@H](c2nc3cc(Cl)c(C(F)(F)F)cc3[nH]2)N(C(=O)c2cc(C)ccc2-n2cccn2)C1 | log10(IC50) | 1.38 |
| Cc1nc(C(=O)N2CCC[C@@]2(C)c2nc3c(C)c(Cl)ccc3[nH]2)c(-c2cccc(Cl)c2)s1 | log10(IC50) | 0.48 |
| CCn1c([C@]2(C)CCCN2C(=O)c2cc(C)ccc2-c2cccc(OC)c2)nc2cc(C)c(C)cc21 | log10(IC50) | 1.32 |
| Cc1ccc(-n2nccn2)c(C(=O)N2CCC[C@@]2(C)c2nc3c(C)c(C)ccc3[nH]2)c1 | log10(IC50) | 0.60 |
| CO[C@H]1CN(C(=O)c2ccccc2-n2cccn2)C(C)(c2nc3c(C)c(Cl)ccc3[nH]2)C1 (stereo partly drawn) | log10(IC50) | 1.72 |
| Cc1nc(C(=O)N2CC(F)(F)C[C@H]2c2nc3c(C)c(Cl)ccc3[nH]2)c(-c2ccccc2)s1 | log10(IC50) | 1.85 |
| COc1cc2nc([C@]3(C)CCCN3C(=O)c3nc(C)ccc3-n3cccn3)[nH]c2cc1OC | log10(IC50) | 2.63 |
| C=C1C[C@@H](c2nc3cc(Cl)c(C(F)(F)F)cc3[nH]2)N(C(=O)c2cc(C)c(C)cc2-n2nccn2)C1 | log10(IC50) | 0.30 |
